B1: C9orf9 (parent)
chain: TKHKCRQLTKASLKPRGCSKPPWR

Variants of: B1
assay-info: protein stability index of a GFP-peptide fusion (GPS, HEK-293T) (PSI 1-6); higher = more stable;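 note: lentivirally expressed fusions sorted by FACS into six bins by GFP to DsRed ratio, PSI derived from sequencing read proportions per bin multiplied by bin number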
condition-details: c terminus: a fixed tail appended
Reported protein stability index is given for each of the following variants.

INSERT INTO assay_data (mutations, value_reported) VALUES
  ('C18H', 3.02),
  ('L8D', 3.07),
  ('R6D', 3.03),
  ('H3S', 3.02),
  ('L13E', 2.91),
  ('H3Y', 3.08);

Prompt line: Return value of protein stability index for input S19T , no commentary.
Response line: 3.02

Prompt line: Identify protein stability index associated with the variant P22E
Response line: 2.98

Prompt line: Assign protein stability index to the following record: P22H
Response line: 2.98
